B1: library; numbered along this chain (parent)
chain: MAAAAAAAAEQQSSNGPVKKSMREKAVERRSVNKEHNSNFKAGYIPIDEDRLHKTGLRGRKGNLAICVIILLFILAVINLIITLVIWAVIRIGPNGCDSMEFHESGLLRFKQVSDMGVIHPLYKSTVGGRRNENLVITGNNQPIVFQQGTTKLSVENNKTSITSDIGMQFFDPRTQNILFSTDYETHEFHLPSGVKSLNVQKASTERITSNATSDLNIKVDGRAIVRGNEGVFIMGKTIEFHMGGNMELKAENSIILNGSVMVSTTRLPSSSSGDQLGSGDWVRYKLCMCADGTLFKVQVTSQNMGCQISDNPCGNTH

variants of: B1; assay: SGCB cell-surface expression functional score (HA stain, bin4 vs bin1, normalised to synonymous) (log10 ratio); higher = more cell-surface SGCB (functional)
Binary classification by SGCB cell-surface expression functional score (log10), with -0.2 as an inclusive lower bound for true (1); all other cases are false (0).

Enquiry: Check if SGCB cell-surface expression functional score (log10) >= -0.2 (inclusive). Item: `S38T`
Return: true (1)

Enquiry: Check if SGCB cell-surface expression functional score (log10) >= -0.2 (inclusive). Item: `H36F`
Return: true (1)

Enquiry: Check if SGCB cell-surface expression functional score (log10) >= -0.2 (inclusive). Item: `P46D`
Return: true (1)

Enquiry: Check if SGCB cell-surface expression functional score (log10) >= -0.2 (inclusive). Item: `V68G`
Return: true (1)

Enquiry: Check if SGCB cell-surface expression functional score (log10) >= -0.2 (inclusive). Item: `P192K`
Return: false (0)

Enquiry: Check if SGCB cell-surface expression functional score (log10) >= -0.2 (inclusive). Item: `Q308H`
Return: false (0)

Enquiry: Check if SGCB cell-surface expression functional score (log10) >= -0.2 (inclusive). Item: `G293S`
Return: false (0)

Enquiry: Check if SGCB cell-surface expression functional score (log10) >= -0.2 (inclusive). Item: `K152G`
Return: false (0)

Enquiry: Check if SGCB cell-surface expression functional score (log10) >= -0.2 (inclusive). Item: `A42L`
Return: true (1)

Enquiry: Check if SGCB cell-surface expression functional score (log10) >= -0.2 (inclusive). Item: `S214P`
Return: false (0)

Enquiry: Check if SGCB cell-surface expression functional score (log10) >= -0.2 (inclusive). Item: `G56Y`
Return: true (1)

Enquiry: Check if SGCB cell-surface expression functional score (log10) >= -0.2 (inclusive). Item: `S114E`
Return: false (0)

Enquiry: Check if SGCB cell-surface expression functional score (log10) >= -0.2 (inclusive). Item: `M262I`
Return: true (1)

Enquiry: Check if SGCB cell-surface expression functional score (log10) >= -0.2 (inclusive). Item: `L287P`
Return: true (1)

Enquiry: Check if SGCB cell-surface expression functional score (log10) >= -0.2 (inclusive). Item: `R227Q`
Return: true (1)

Enquiry: Check if SGCB cell-surface expression functional score (log10) >= -0.2 (inclusive). Item: `I178T`
Return: false (0)

Enquiry: Check if SGCB cell-surface expression functional score (log10) >= -0.2 (inclusive). Item: `E28N`
Return: true (1)

Enquiry: Check if SGCB cell-surface expression functional score (log10) >= -0.2 (inclusive). Item: `A88M`
Return: true (1)

Enquiry: Check if SGCB cell-surface expression functional score (log10) >= -0.2 (inclusive). Item: `V85I`
Return: true (1)

Enquiry: Check if SGCB cell-surface expression functional score (log10) >= -0.2 (inclusive). Item: `S210T`
Return: false (0)

Enquiry: Check if SGCB cell-surface expression functional score (log10) >= -0.2 (inclusive). Item: `S99Y`
Return: true (1)

Enquiry: Check if SGCB cell-surface expression functional score (log10) >= -0.2 (inclusive). Item: `I208C`
Return: false (0)

Enquiry: Check if SGCB cell-surface expression functional score (log10) >= -0.2 (inclusive). Item: `G245L`
Return: true (1)

Enquiry: Check if SGCB cell-surface expression functional score (log10) >= -0.2 (inclusive). Item: `P121W`
Return: false (0)

Enquiry: Check if SGCB cell-surface expression functional score (log10) >= -0.2 (inclusive). Item: `S214H`
Return: false (0)

Enquiry: Check if SGCB cell-surface expression functional score (log10) >= -0.2 (inclusive). Item: `I86M`
Return: true (1)

Enquiry: Check if SGCB cell-surface expression functional score (log10) >= -0.2 (inclusive). Item: `Q299F`
Return: true (1)

Enquiry: Check if SGCB cell-surface expression functional score (log10) >= -0.2 (inclusive). Item: `A224L`
Return: true (1)

Enquiry: Check if SGCB cell-surface expression functional score (log10) >= -0.2 (inclusive). Item: `N37K`
Return: false (0)

Enquiry: Check if SGCB cell-surface expression functional score (log10) >= -0.2 (inclusive). Item: `S310I`
Return: true (1)

Enquiry: Check if SGCB cell-surface expression functional score (log10) >= -0.2 (inclusive). Item: `H120C`
Return: true (1)

Enquiry: Check if SGCB cell-surface expression functional score (log10) >= -0.2 (inclusive). Item: `V220Q`
Return: false (0)

Enquiry: Check if SGCB cell-surface expression functional score (log10) >= -0.2 (inclusive). Item: `L71D`
Return: true (1)

Enquiry: Check if SGCB cell-surface expression functional score (log10) >= -0.2 (inclusive). Item: `S271Q`
Return: true (1)

Enquiry: Check if SGCB cell-surface expression functional score (log10) >= -0.2 (inclusive). Item: `N141I`
Return: false (0)

Enquiry: Check if SGCB cell-surface expression functional score (log10) >= -0.2 (inclusive). Item: `I86A`
Return: true (1)

Enquiry: Check if SGCB cell-surface expression functional score (log10) >= -0.2 (inclusive). Item: `G16E`
Return: true (1)

Enquiry: Check if SGCB cell-surface expression functional score (log10) >= -0.2 (inclusive). Item: `G244P`
Return: true (1)

Enquiry: Check if SGCB cell-surface expression functional score (log10) >= -0.2 (inclusive). Item: `R109A`
Return: false (0)

Enquiry: Check if SGCB cell-surface expression functional score (log10) >= -0.2 (inclusive). Item: `F180Y`
Return: false (0)

Enquiry: Check if SGCB cell-surface expression functional score (log10) >= -0.2 (inclusive). Item: `I208L`
Return: true (1)

Enquiry: Check if SGCB cell-surface expression functional score (log10) >= -0.2 (inclusive). Item: `S181G`
Return: false (0)

Enquiry: Check if SGCB cell-surface expression functional score (log10) >= -0.2 (inclusive). Item: `K34M`
Return: false (0)

Enquiry: Check if SGCB cell-surface expression functional score (log10) >= -0.2 (inclusive). Item: `V298K`
Return: true (1)

Enquiry: Check if SGCB cell-surface expression functional score (log10) >= -0.2 (inclusive). Item: `V261W`
Return: true (1)

Enquiry: Check if SGCB cell-surface expression functional score (log10) >= -0.2 (inclusive). Item: `T294P`
Return: true (1)

Enquiry: Check if SGCB cell-surface expression functional score (log10) >= -0.2 (inclusive). Item: `D48S`
Return: true (1)

Enquiry: Check if SGCB cell-surface expression functional score (log10) >= -0.2 (inclusive). Item: `N158D`
Return: true (1)

Enquiry: Check if SGCB cell-surface expression functional score (log10) >= -0.2 (inclusive). Item: `L107S`
Return: false (0)

Enquiry: Check if SGCB cell-surface expression functional score (log10) >= -0.2 (inclusive). Item: `G228N`
Return: false (0)

Enquiry: Check if SGCB cell-surface expression functional score (log10) >= -0.2 (inclusive). Item: `T317W`
Return: true (1)

Enquiry: Check if SGCB cell-surface expression functional score (log10) >= -0.2 (inclusive). Item: `S164L`
Return: false (0)

Enquiry: Check if SGCB cell-surface expression functional score (log10) >= -0.2 (inclusive). Item: `V136Q`
Return: true (1)

Enquiry: Check if SGCB cell-surface expression functional score (log10) >= -0.2 (inclusive). Item: `L57G`
Return: true (1)

Enquiry: Check if SGCB cell-surface expression functional score (log10) >= -0.2 (inclusive). Item: `G149R`
Return: false (0)

Enquiry: Check if SGCB cell-surface expression functional score (log10) >= -0.2 (inclusive). Item: `G149H`
Return: false (0)

Enquiry: Check if SGCB cell-surface expression functional score (log10) >= -0.2 (inclusive). Item: `E252T`
Return: true (1)

Enquiry: Check if SGCB cell-surface expression functional score (log10) >= -0.2 (inclusive). Item: `E24S`
Return: true (1)

Enquiry: Check if SGCB cell-surface expression functional score (log10) >= -0.2 (inclusive). Item: `P192D`
Return: false (0)

Enquiry: Check if SGCB cell-surface expression functional score (log10) >= -0.2 (inclusive). Item: `E156W`
Return: false (0)

Enquiry: Check if SGCB cell-surface expression functional score (log10) >= -0.2 (inclusive). Item: `S31D`
Return: true (1)

Enquiry: Check if SGCB cell-surface expression functional score (log10) >= -0.2 (inclusive). Item: `V77M`
Return: true (1)

Enquiry: Check if SGCB cell-surface expression functional score (log10) >= -0.2 (inclusive). Item: `T238I`
Return: true (1)

Enquiry: Check if SGCB cell-surface expression functional score (log10) >= -0.2 (inclusive). Item: `H36E`
Return: true (1)

Enquiry: Check if SGCB cell-surface expression functional score (log10) >= -0.2 (inclusive). Item: `E230N`
Return: true (1)

Enquiry: Check if SGCB cell-surface expression functional score (log10) >= -0.2 (inclusive). Item: `N316R`
Return: true (1)

Enquiry: Check if SGCB cell-surface expression functional score (log10) >= -0.2 (inclusive). Item: `S264K`
Return: true (1)

Enquiry: Check if SGCB cell-surface expression functional score (log10) >= -0.2 (inclusive). Item: `P121E`
Return: false (0)

Enquiry: Check if SGCB cell-surface expression functional score (log10) >= -0.2 (inclusive). Item: `L191C`
Return: false (0)

Enquiry: Check if SGCB cell-surface expression functional score (log10) >= -0.2 (inclusive). Item: `G194W`
Return: true (1)

Enquiry: Check if SGCB cell-surface expression functional score (log10) >= -0.2 (inclusive). Item: `H187G`
Return: false (0)

Enquiry: Check if SGCB cell-surface expression functional score (log10) >= -0.2 (inclusive). Item: `N141C`
Return: true (1)

Enquiry: Check if SGCB cell-surface expression functional score (log10) >= -0.2 (inclusive). Item: `A4R`
Return: true (1)

Enquiry: Check if SGCB cell-surface expression functional score (log10) >= -0.2 (inclusive). Item: `V263N`
Return: true (1)

Enquiry: Check if SGCB cell-surface expression functional score (log10) >= -0.2 (inclusive). Item: `I90C`
Return: true (1)

Enquiry: Check if SGCB cell-surface expression functional score (log10) >= -0.2 (inclusive). Item: `S14I`
Return: true (1)

Enquiry: Check if SGCB cell-surface expression functional score (log10) >= -0.2 (inclusive). Item: `T182F`
Return: false (0)

Enquiry: Check if SGCB cell-surface expression functional score (log10) >= -0.2 (inclusive). Item: `T317M`
Return: false (0)

Enquiry: Check if SGCB cell-surface expression functional score (log10) >= -0.2 (inclusive). Item: `D275N`
Return: true (1)

Enquiry: Check if SGCB cell-surface expression functional score (log10) >= -0.2 (inclusive). Item: `R30E`
Return: true (1)

Enquiry: Check if SGCB cell-surface expression functional score (log10) >= -0.2 (inclusive). Item: `A65W`
Return: true (1)

Enquiry: Check if SGCB cell-surface expression functional score (log10) >= -0.2 (inclusive). Item: `E133W`
Return: true (1)

Enquiry: Check if SGCB cell-surface expression functional score (log10) >= -0.2 (inclusive). Item: `M243R`
Return: false (0)

Enquiry: Check if SGCB cell-surface expression functional score (log10) >= -0.2 (inclusive). Item: `N132E`
Return: true (1)

Enquiry: Check if SGCB cell-surface expression functional score (log10) >= -0.2 (inclusive). Item: `V220W`
Return: false (0)

Enquiry: Check if SGCB cell-surface expression functional score (log10) >= -0.2 (inclusive). Item: `V32F`
Return: false (0)

Enquiry: Check if SGCB cell-surface expression functional score (log10) >= -0.2 (inclusive). Item: `T205K`
Return: false (0)

Enquiry: Check if SGCB cell-surface expression functional score (log10) >= -0.2 (inclusive). Item: `F189E`
Return: false (0)

Enquiry: Check if SGCB cell-surface expression functional score (log10) >= -0.2 (inclusive). Item: `F110A`
Return: false (0)

Enquiry: Check if SGCB cell-surface expression functional score (log10) >= -0.2 (inclusive). Item: `R29K`
Return: false (0)
